Target: T1, soluble Homo sapiens CD131 comprising a C-terminal 6xHis tag (human, UniProt P32927 17-438)
T1 construct: truncated after Ser438, C-terminal 6xHis; also called shCD131; shβc
T1 sequence: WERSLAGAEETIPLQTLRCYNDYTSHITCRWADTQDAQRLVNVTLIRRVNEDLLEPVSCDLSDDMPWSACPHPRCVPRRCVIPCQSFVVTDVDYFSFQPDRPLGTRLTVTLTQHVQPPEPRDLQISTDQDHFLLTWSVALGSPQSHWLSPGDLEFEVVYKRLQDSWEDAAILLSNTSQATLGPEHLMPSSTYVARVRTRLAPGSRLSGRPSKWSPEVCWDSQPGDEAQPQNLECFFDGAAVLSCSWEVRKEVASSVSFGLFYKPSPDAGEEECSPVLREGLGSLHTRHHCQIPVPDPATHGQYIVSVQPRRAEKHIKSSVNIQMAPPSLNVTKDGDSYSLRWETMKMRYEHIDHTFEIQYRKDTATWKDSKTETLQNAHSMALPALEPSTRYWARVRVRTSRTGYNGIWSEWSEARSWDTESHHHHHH
Experiment: SPR, Fab over captured shCD131
Would you kindly list Kd for each of these binders?
Response body: numeric value in nM, unit text excluded.

## Input What Kd value was documented for this binder, 9A2-VR24.110 Fab (Fab, V domains shown, recombinant Fab) VH: EVQLLESGGGLVQPGGSLRLSCAASGFTFPWYRVHWVRQAPGKGLEWVSSIRSSGGFPYYNNHVKGRFTISRDNSKNTLYLQMNSLRAEDTAVYYCARFYDSFFDIWGQGTMVTVSS VL: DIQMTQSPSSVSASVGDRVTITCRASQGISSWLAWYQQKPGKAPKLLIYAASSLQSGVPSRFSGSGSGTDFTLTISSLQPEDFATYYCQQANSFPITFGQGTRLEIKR ?
## Output 0.151

## Input What Kd value was documented for this binder, 9A2-VR39.04 Fab (Fab, V domains shown, recombinant Fab) VH: EVQLLESGGGLVQPGGSLRLSCAASGFTFNWFQHIWVRQAPGKGLEWVSSINGRGRVTYYADSVKGRFTISRDNSKNTLYLQMNSLRAEDTAVYYCARFYDSFFDIWGQGTMVTVSS VL: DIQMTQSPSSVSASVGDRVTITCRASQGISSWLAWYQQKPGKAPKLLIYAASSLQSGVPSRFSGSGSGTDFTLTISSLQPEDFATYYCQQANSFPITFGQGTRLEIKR ?
## Output 0.329
